Biological target: rat mGluR5 (Rattus norvegicus)
Sequence (P31424 21-1203): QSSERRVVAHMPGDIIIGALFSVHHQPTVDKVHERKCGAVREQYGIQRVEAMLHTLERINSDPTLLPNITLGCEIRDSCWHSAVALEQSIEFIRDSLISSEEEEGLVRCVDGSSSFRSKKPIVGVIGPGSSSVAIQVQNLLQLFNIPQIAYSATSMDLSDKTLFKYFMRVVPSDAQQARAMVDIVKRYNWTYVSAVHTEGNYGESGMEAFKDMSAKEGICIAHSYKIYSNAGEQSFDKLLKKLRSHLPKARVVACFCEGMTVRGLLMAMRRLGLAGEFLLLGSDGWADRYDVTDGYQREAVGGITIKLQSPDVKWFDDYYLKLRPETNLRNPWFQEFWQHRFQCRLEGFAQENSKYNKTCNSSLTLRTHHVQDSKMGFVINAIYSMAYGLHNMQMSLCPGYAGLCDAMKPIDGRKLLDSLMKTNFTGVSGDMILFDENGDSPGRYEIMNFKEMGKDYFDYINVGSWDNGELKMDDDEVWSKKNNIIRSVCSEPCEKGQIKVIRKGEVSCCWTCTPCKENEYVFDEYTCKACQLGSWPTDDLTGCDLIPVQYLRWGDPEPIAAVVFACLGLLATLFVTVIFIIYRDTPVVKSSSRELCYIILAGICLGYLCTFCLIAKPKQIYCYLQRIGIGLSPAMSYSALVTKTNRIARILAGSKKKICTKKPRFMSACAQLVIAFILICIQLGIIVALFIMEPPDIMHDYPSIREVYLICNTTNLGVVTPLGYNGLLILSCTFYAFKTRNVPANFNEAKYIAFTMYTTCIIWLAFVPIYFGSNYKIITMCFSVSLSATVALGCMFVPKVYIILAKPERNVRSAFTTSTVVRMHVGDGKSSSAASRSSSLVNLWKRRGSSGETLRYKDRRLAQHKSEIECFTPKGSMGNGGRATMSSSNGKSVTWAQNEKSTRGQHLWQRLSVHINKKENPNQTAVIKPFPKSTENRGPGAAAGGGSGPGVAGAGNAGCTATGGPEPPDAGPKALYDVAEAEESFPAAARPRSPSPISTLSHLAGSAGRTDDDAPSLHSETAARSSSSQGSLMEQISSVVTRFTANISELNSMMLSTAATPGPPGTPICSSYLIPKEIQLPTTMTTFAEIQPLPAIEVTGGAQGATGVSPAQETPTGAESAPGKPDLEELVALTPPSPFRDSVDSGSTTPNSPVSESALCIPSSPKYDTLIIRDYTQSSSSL
Assay: Calcium mobilization flux (FLIPR) in CHO-rat mGluR5 cells in the presence of glutamate
Conditions: 10 uM glutamate, Fluo 4 calcium flux, mean of 4 experiments
Observable: pIC50
Please report pIC50 as the negative decimal logarithm of the molar concentration, giving only the number.

Query: Consider the compound O=C(C#Cc1ccccc1)N1CC(Nc2ncccc2[N+](=O)[O-])C1 [AAB(Ib)] tested on rat mGluR5 (Rattus norvegicus); state its pIC50.
Result: 6.96
